- Experiment summary: Mouse blood levels following a single intramuscular injection
- Format: in vivo
- Assay context: im, mice, 20 mg/kg, 60 minutes, read-out: Blood levels at minutes after administration: 60
Property name: concentration at 1 h (ng/mL)
Answers are plain numbers, in ng/mL.

Notebook: CO/N=C(\C(=O)NC1C(=O)N2C(C(=O)[O-])=C(C[N+](C)(C)C)CSC12)c1csc(N)n1 (stereo not shown) , concentration at 1 h read as 4400

###

- Experiment summary: Mouse blood levels following a single intramuscular injection
- Format: in vivo
- Assay context: im, mice, 20 mg/kg, 10 minutes, read-out: Blood levels at minutes after administration: 10
Property name: concentration at 10 min
Please give the number followed by its unit.

CO/N=C(\C(=O)NC1C(=O)N2C(C(=O)[O-])=C(C[N+](C)(C)C)CSC12)c1csc(N)n1 (stereo not shown) has a reported concentration at 10 min of 14000 ng/mL
